Listed here are compounds together with their documented pIC50.
- systemName: human active recombinant p38α-6His tagged (Homo sapiens, UniProt Q16539)
- Sequence (Q16539 whole entry): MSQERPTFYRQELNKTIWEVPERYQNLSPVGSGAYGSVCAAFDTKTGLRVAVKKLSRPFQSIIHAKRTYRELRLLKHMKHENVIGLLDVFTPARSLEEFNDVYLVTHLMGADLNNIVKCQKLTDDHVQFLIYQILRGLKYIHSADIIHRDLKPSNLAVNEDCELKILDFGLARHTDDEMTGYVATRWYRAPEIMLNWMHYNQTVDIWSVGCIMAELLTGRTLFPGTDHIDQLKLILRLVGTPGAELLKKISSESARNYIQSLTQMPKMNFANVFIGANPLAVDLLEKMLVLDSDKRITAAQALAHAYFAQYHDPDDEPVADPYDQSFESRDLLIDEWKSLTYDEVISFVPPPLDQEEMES
- experimentalProtocol: P38 Alpha Enzyme Assay (AlphaScreen, biotinylated-ATF2 substrate)
- Format: biochemical
- studyConditions: p38 alpha enzyme inhibition; means of replicate determinations; 4 h pre-incubation at 37° C.; SD of assay 0.2-0.3 log units
Counter-ions that a name gives are not always drawn.

Cc1ccc(C(=O)NC2CC2)cc1-n1ccnc(N[C@@H](c2ccccc2)[C@@H](C)CNC2CCNCC2)c1=O    8.8
Cc1c(F)cc(C(=O)NC2CC2)cc1-n1ccnc(NC2(c3ccccc3OCCNCCO)CC2)c1=O    10.3
Cc1ccc(C(=O)NC2CC2)cc1-n1ccnc(N[C@@H](c2ccccc2)[C@@H](C)CNCC(C)(C)C)c1=O    9
Cc1ccc(C(=O)NC2CC2)cc1-n1ccnc(N[C@@H](c2ccccc2)[C@@H](C)CN2C[C@@H](C)N[C@@H](C)C2)c1=O    9.1
Cc1ccc(C(=O)NC2CC2)cc1-n1ccnc(N[C@H](c2ccccc2)C2CCNCC2)c1=O [Example 103, trifluoroacetate]    6.1

Entry under test: Cc1ccc(C(=O)NC2CC2)cc1-n1ccnc(N[C@@H](c2ccccc2)[C@@H](C)CN2CCC[C@@H](O)C2)c1=O . Its pIC50 was 9

Entry under test: Cc1c(F)cc(C(=O)NC2CC2)cc1-n1ccnc(NC(C)(C)c2ccccc2SCCNCCO)c1=O . Its pIC50 was 9.8

----------
- systemName: human active recombinant p38α-6His tagged (Homo sapiens, UniProt Q16539)
- experimentalProtocol: P38 Alpha Enzyme Assay (AlphaScreen, biotinylated-ATF2 substrate);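 further: 0.5 nM final p38α, reaction started with ATP and run 45 min at 37 °C, phospho-ATF2 read by antibody-based AlphaScreen, background wells quenched with EDTA before ATP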
- Assay type: biochemical
- studyConditions: p38 alpha enzyme inhibition; means of replicate determinations; 4 h pre-incubation at 37° C.; SD of assay 0.2-0.3 log units
Param threshold (7) applies to pIC50; output MET when value >= threshold, NOT MET when value < threshold.

Before answering, review these 2 worked examples.
Cc1ccc(C(=O)NC2CC2)cc1-n1ccnc(NC2(c3ccccc3OCCNC3CCS(=O)(=O)C3)CC2)c1=O (stereo not shown) [Example 295]    MET
CNCCOc1ccccc1C(C)(C)Nc1nccn(-c2cc(C(=O)N3CCC3)ccc2C)c1=O [Example 221]    NOT MET

// next entry
Please check the record Cc1ccc(C(=O)NC2CC2)cc1-n1ccnc(NC(C)(C)c2ccccc2OC2CNC2)c1=O [Example 215] and state if its pIC50 is at or above 7. MET

----------
- systemName: human active recombinant p38α-6His tagged (Homo sapiens)
- experimentalProtocol: P38 Alpha Enzyme Assay (AlphaScreen, biotinylated-ATF2 substrate)
- Type: biochemical
- studyConditions: p38 alpha enzyme inhibition; means of replicate determinations; 4 h pre-incubation at 37° C.; SD of assay 0.2-0.3 log units
Param threshold (9) applies to pIC50; output Met when value >= threshold, Not met when value < threshold.

Before answering, review these 3 worked examples.
COCCNCCOc1ccccc1C(C)(C)Nc1nccn(-c2cc(C(=O)NC3CC3)cc(F)c2C)c1=O    Met
Cc1ccc(C(=O)NC2CC2)cc1-n1ccnc(NC2(c3ccccc3OCCNCCO)CC2)c1=O    Met
CONC(=O)c1ccc(C)c(-n2ccnc(NC(C)(C)c3ccccc3)c2=O)c1    Met

Please check the record Cc1ccc(C(=O)NC2CC2)cc1-n1ccnc(NC2(c3ccccc3OCCN[C@@H](CO)C(C)C)CC2)c1=O and state if its pIC50 is at or above 9. Met

Please check the record Cc1ccccc1CCNc1nccn(-c2cc(C(=O)NC3CC3)ccc2C)c1=O and state if its pIC50 is at or above 9. Not met

Please check the record Cc1ccc(C(=O)NC2CC2)cc1-n1ccnc(N[C@H]2C[C@@H]2c2ccccc2)c1=O and state if its pIC50 is at or above 9. Not met
